Recorded values, source patent US9932340B2.

Provide the reported IC50 of each item.
Give the value, in units of nM, as a plain number.

Q: Give SUV420H1 enzyme (Homo sapiens, UniProt Q4FZB7) IC50 for CC(=O)N1CCC(c2cc(Cn3cnc4c(N)ncnc43)c3[nH]c(CN)cc3c2)CC1 [Example 17]
A: 635

Q: Give SUV420H1 enzyme (Homo sapiens, UniProt Q4FZB7) IC50 for Cc1ccsc1C(=O)NCc1cc2cc(Cl)cc(Cn3cnc4c(N)ncnc43)c2[nH]1 [Example 157]
A: 2060

Q: Give SUV420H1 enzyme (Homo sapiens, UniProt Q4FZB7) IC50 for COc1cccc(C)c1C(=O)NCc1cc2cc(Cl)cc(Cn3cnc4c(N)ncnc43)c2[nH]1 [Example 299]
A: 1840

====

Provide the reported pIC50 of each item.
pIC50: −log10 of the molar value.

Q: Give SUV420H1 enzyme (Homo sapiens) pIC50 for Nc1ncnc2c1ncn2Cc1cc(Cl)cc2cc(CNC(=O)Cc3ccc(F)cc3)[nH]c12
A: < 4.30

Q: Give SUV420H1 enzyme (Homo sapiens) pIC50 for N#Cc1c[nH]c2ccc(C(=O)NCc3cc4cc(Cl)cc(Cn5cnc6c(N)ncnc65)c4[nH]3)cc12
A: < 4.30

Q: Give SUV420H1 enzyme (Homo sapiens) pIC50 for Cc1n[nH]c2ncc(C(=O)NCc3cc4cc(Cl)cc(Cn5cnc6c(N)ncnc65)c4[nH]3)cc12
A: < 4.30

====

IC50 data for SUV420H1 enzyme (Homo sapiens) follow.
Give the value, in units of µM, as a plain number.

Q: What IC50 value was documented for this compound, Nc1ncnc2c1ncn2Cc1cc(Cl)cc2cc(CNC(=O)c3cnc4ccoc4c3)[nH]c12 ?
A: 0.807

Q: What IC50 value was documented for this compound, CCCCc1nc2cc(C(=O)NCc3cc4cc(Cl)cc(Cn5cnc6c(N)ncnc65)c4[nH]3)ccc2o1 ?
A: 0.765

Q: What IC50 value was documented for this compound, NCc1cc2c(-c3ccccc3F)ccc(Cn3cnc4c(N)ncnc43)c2[nH]1 ?
A: 1.18

Q: What IC50 value was documented for this compound, Cc1nc2ccc(C(=O)NCc3cc4cc(Cl)cc(Cn5cnc6c(N)ncnc65)c4[nH]3)cc2s1 ?
A: 0.889

Q: What IC50 value was documented for this compound, N#Cc1cccc(-c2ccc(Cn3cnc4c(N)ncnc43)c3[nH]c(CN)cc23)c1 ?
A: 0.831

====

Provide the reported IC50 of each item.
Give the value, in units of nM, as a plain number.

Q: Give SUV420H1 enzyme (Homo sapiens) IC50 for Nc1ncnc2c1ncn2Cc1cc(Cl)cc2cc(CNCc3cc(F)ccc3Cl)[nH]c12
A: 2430

Q: Give SUV420H1 enzyme (Homo sapiens) IC50 for Nc1ncnc2c1ncn2Cc1cc(Cl)cc2cc(CNC(=O)c3c(F)cccc3Cl)[nH]c12
A: 790

Q: Give SUV420H1 enzyme (Homo sapiens) IC50 for Cc1nc(C)c(C(=O)NCc2cc3cc(Cl)cc(Cn4cnc5c(N)ncnc54)c3[nH]2)s1
A: 856
